Origin of values: patent US20160375127A1

# Tested on: HIV-1 NL4-3
# Experimental Protocol: Infectivity of NL4-3 virus from treated transfected 293T cells on MT4 cells, CellTiter-Glo
# Format: cell-based
# Cond: 293T transfection, compound 48 hours, supernatant diluted 2000 times, MT4 viability
Endpoint Name: inactivation of NL4-3 virus produced in the presence of compound

Molecule | Test System | Reported Measurement
Cc1sc(-c2ccncc2)c(C2=CCC(C)(C)CC2)c1[C@H](OC(C)(C)C)C(=O)O | HIV-1 NL4-3 | inactivated
CC(C)(C)NC(=O)[C@@H]1C[C@@H]2CCCC[C@@H]2CN1C[C@@H](O)[C@H](Cc1ccccc1)NC(=O)[C@H](CC(N)=O)NC(=O)c1ccc2ccccc2n1 [Saquinavir, reference compound] | HIV-1 NL4-3 | inactivated
Cc1nc2c(c(-c3ccc4c(c3)CCCO4)c1C(OC(C)(C)C)C(=O)O)CCCC2 (stereo not shown) | HIV-1 NL4-3 | inactivated
